Recorded Ki for the following compounds
target: MC3-R (Homo sapiens, UniProt P41968); construct: expressed in transfected cells; host or cells: HEK-293; experiment: Competitive inhibition Ki (AgRP), MC3-R; type: binding; settings: AgRP as competing ligand
Sequence (P41968 whole entry): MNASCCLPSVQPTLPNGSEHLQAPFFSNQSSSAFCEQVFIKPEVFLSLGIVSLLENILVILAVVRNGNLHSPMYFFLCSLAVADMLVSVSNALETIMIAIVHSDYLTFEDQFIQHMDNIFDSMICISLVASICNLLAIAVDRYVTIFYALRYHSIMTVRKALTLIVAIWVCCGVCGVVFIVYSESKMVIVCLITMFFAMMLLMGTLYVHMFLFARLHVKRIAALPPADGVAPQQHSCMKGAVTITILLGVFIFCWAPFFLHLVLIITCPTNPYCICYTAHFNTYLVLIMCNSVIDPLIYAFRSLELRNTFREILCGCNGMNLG
Where a SMILES comes first, the peptide text is derived from it. Bridges are numbered along the chain shown (N, C = ends). [ ]: non-standard residue; d: D form. 1Nal = N[C@@H](Cc1cccc2ccccc12)C(=O)O; Nle = CCCC[C@H](N)C(=O)O
Quantity measured: Ki

>>> test_result("CCCC[C@H](NC(C)=O)C(=O)N[C@H]1CC(=O)NCCCC[C@@H](C(=O)N(C)C)NC(=O)[C@H](Cc2cccc3ccccc23)NC(=O)[C@H](CCCNC(=N)N)NC(=O)[C@@H](Cc2ccccc2)NC(=O)[C@H](Cc2c[nH]c3ccccc23)NC1=O [Example 10] (Ac-[Nle]DW[dF]R[1Nal]K-NMe2; lactam 2-7 (inferred))")
"> 1 µM"
>>> test_result("CCCC[C@H](NC(C)=O)C(=O)N[C@H]1CC(=O)NCCCC[C@@H](C(=O)N(C)C)NC(=O)[C@H](Cc2cccc3ccccc23)NC(=O)[C@H](CCCNC(=N)N)NC(=O)[C@@H](Cc2ccccc2)NC(=O)[C@H](Cc2c[nH]cn2)NC1=O")
"> 1 µM"
>>> test_result("CCNC(=O)[C@@H]1CCCCNC(=O)C[C@H](NC(C)=O)C(=O)N[C@@H](Cc2c[nH]cn2)C(=O)N[C@H](Cc2ccccc2)C(=O)N[C@@H](CCCNC(=N)N)C(=O)N[C@@H](Cc2cccc3ccccc23)C(=O)N1 [Example 16] (Ac-DH[dF]R[1Nal]K-NHEt; lactam 1-6 (inferred))")
"> 2 µM"
